Tested on: Escherichia coli
testName: Inhibition of Metallo-beta-lactamase VIM-2 in Escherichia coli clinical isolate assessed as fold reduction in meropenem MIC at 128 ug/ml
measurementContext: dose 128.0 µg/ml
assayReadout: fold change (FC)
Give a plain numeric answer without units written out.

// field: fold change (FC); key: O=C(Cc1ccccc1)N[C@@H]1C(=O)N2C(C(=O)O)=C(CSCCc3ccccc3)CS[C@H]12 ; value = 2

// field: fold change (FC); key: O=C(Cc1ccccc1)N[C@@H]1C(=O)N2C(C(=O)O)=C(CS[C@H](Cc3ccccc3)C(=O)O)CS[C@H]12 ; value = 4

// field: fold change (FC); key: O=C(Cc1ccccc1)N[C@@H]1C(=O)N2C(C(=O)O)=C(CSC(C(=O)O)c3ccccc3)CS[C@H]12 (some centres undefined) ; value = 8

// field: fold change (FC); key: O=C(Cc1ccccc1)N[C@@H]1C(=O)N2C(C(=O)O)=C(CSCc3ccccc3)CS[C@H]12 ; value = 4

// field: fold change (FC); key: O=C(Cc1ccccc1)N[C@@H]1C(=O)N2C(C(=O)O)=C(CSCC(=O)c3ccccc3)CS[C@H]12 ; value = 2

// field: fold change (FC); key: O=C(Cc1ccccc1)N[C@@H]1C(=O)N2C(C(=O)O)=C(CS[C@@H](Cc3ccccc3)C(=O)O)CS[C@H]12 ; value = 2

Next:
// field: fold change (FC); key: O=C(O)CSCC1=C(C(=O)O)N2C(=O)[C@@H](NC(=O)Cc3ccccc3)[C@H]2SC1 ; value = 4

// field: fold change (FC); key: CC1=C(C(=O)O)N2C(=O)[C@@H](NC(=O)Cc3ccccc3)[C@H]2SC1 ; value = 4

###

# fold change (FC) annotations
Tested on: Escherichia coli
testName: Inhibition of Metallo-beta-lactamase VIM-2 in Escherichia coli clinical isolate assessed as fold reduction in meropenem MIC at 64 ug/ml
measurementContext: dose 64.0 µg/ml

Some solved entries appear below for comparison.
// field: fold change (FC); key: O=C(Cc1ccccc1)N[C@@H]1C(=O)N2C(C(=O)O)=C(CSC(C(=O)O)c3ccccc3)CS[C@H]12 (stereo not given in full) ; value = 4

// field: fold change (FC); key: CC1=C(C(=O)O)N2C(=O)[C@@H](NC(=O)Cc3ccccc3)[C@H]2SC1 ; value = 2

// field: fold change (FC); key: O=C(Cc1ccccc1)N[C@@H]1C(=O)N2C(C(=O)O)=C(CSCCc3ccccc3)CS[C@H]12 ; value = 2

// field: fold change (FC); key: O=C(Cc1ccccc1)N[C@@H]1C(=O)N2C(C(=O)O)=C(CSCc3ccccc3)CS[C@H]12 ; value = 2

Next:
// field: fold change (FC); key: O=C(O)CSCC1=C(C(=O)O)N2C(=O)[C@@H](NC(=O)Cc3ccccc3)[C@H]2SC1 ; value = 2

###

# MIC annotations
System: Enterobacter cloacae
testName: Inhibition of Metallo-beta-lactamase IMP-1 in Enterobacter cloacae clinical isolate assessed as MIC for meropenem antibacterial activity at 64 ug/ml (Rvb =16 ug/ml)
measurementContext: dose 64.0 µg/ml
Dear colleague, please return just the value in mg/L, with no unit written.

Some solved entries appear below for comparison.
// field: MIC; key: CC1=C(C(=O)O)N2C(=O)[C@@H](NC(=O)Cc3ccccc3)[C@H]2SC1 ; value = 16

// field: MIC; key: O=C(Cc1ccccc1)N[C@@H]1C(=O)N2C(C(=O)O)=C(CSCCc3ccccc3)CS[C@H]12 ; value = 8

// field: MIC; key: O=C(Cc1ccccc1)N[C@@H]1C(=O)N2C(C(=O)O)=C(CSCC(=O)c3ccccc3)CS[C@H]12 ; value = 8

// field: MIC; key: O=C(Cc1ccccc1)N[C@@H]1C(=O)N2C(C(=O)O)=C(CS[C@@H](Cc3ccccc3)C(=O)O)CS[C@H]12 ; value = 8

Here is the next item to consider.
// field: MIC; key: O=C(O)CSCC1=C(C(=O)O)N2C(=O)[C@@H](NC(=O)Cc3ccccc3)[C@H]2SC1 ; value = 8
